target: human ether-à-go-go-related gene (hERG) potassium channel (human, UniProt Q12809); assay: primary screen, population patch clamp on CHO cells stably expressing hERG; higher = less effect of the substance;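 further: peak tail current of the secondary pulse compared with the same well before compound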
Sequence (Q12809 whole entry, looked up): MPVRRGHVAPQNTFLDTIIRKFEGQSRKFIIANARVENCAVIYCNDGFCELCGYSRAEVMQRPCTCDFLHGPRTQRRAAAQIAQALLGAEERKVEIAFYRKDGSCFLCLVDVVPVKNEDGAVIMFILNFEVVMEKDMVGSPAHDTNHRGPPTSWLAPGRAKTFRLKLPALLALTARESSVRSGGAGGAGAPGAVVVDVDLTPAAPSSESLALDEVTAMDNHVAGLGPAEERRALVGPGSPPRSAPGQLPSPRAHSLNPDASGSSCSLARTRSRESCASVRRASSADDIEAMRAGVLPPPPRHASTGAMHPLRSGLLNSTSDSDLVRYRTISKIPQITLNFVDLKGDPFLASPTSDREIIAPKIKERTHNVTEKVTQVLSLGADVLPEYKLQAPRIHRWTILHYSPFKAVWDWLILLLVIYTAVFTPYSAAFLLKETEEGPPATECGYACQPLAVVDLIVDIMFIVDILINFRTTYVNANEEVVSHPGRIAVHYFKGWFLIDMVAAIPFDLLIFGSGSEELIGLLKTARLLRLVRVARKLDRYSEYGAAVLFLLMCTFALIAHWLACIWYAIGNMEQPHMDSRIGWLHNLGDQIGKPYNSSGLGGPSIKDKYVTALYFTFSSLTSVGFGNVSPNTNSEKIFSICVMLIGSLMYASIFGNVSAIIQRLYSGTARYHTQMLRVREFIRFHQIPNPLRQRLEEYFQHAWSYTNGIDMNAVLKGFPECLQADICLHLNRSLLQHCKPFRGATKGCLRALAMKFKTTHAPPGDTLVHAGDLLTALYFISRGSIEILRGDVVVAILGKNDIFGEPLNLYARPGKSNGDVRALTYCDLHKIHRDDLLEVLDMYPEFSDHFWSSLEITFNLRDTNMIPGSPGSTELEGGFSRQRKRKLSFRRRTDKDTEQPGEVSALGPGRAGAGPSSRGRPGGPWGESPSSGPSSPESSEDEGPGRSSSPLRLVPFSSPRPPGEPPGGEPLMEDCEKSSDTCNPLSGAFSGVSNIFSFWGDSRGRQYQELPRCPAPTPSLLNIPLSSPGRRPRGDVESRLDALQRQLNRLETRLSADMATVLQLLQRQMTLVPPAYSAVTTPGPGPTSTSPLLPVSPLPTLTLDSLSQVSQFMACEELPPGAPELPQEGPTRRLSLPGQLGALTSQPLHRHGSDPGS
The whole screen tested about 310,000 compounds, of which about 14,000 (4.5%) showed an effect of 50% or more. Effects have a minus sign here. This excerpt belongs to a sample that is enriched for strong results.
measured-endpoint: hERG current change (%, negative = inhibition) at 10uM (%)
# value in %; strip the unit string

Some entries whose results are on file:
| compound | assay-value |
| --- | --- |
| Cc1cc(C(=O)CSc2nc(N)cc(=O)[nH]2)c(C)n1-c1ccc(OC(F)F)cc1 | -1.41 |
| COCCn1c(SCC(=O)Nc2cc(C)nn2-c2ccccc2)nnc1-c1ccncc1 | -37.7 |
| O=C(Nc1ccccc1N1CCN(C(=O)c2ccccc2)CC1)c1cc2ccccc2o1 | 9.86 |

# query: hERG current change (%, negative = inhibition) at 10uM | item COc1cc(/C=C/C(=O)OCC(=O)NC2CCS(=O)(=O)C2)ccc1OC(F)F (centres unmarked) | system: human ether-à-go-go-related gene (hERG) potassium channel (human, UniProt Q12809);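 further: peak tail current of the secondary pulse compared with the same well before compound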
-14

# query: hERG current change (%, negative = inhibition) at 10uM | item Cc1cc(C(=O)CC#N)c(C)n1-c1ccc(OC(F)F)cc1 | system: human ether-à-go-go-related gene (hERG) potassium channel (human, UniProt Q12809);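 further: peak tail current of the secondary pulse compared with the same well before compound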
-21.5

The measurements presented in this section are drawn from paper PMC4336329.
